Tested on: Fibroblast
Experiment: Multiplex assay against human fibroblast
Assay type: toxicity, cell-based
Conditions: 24 h, 10 µM, compound concentration 10 uM, replicate 2
test.readout: Population Mitochondria Different-Phenotype (%)
Give your result in % as a bare value.

Take a look at these entries with their results.
>>> df
                              smiles_string  target_under_test  obs_value
0  COc1cc(Nc2ncc3c(n2)-c2ccc(Cl)cc2C(c2c(F)cccc2OC)=NC3)ccc1C(=O)O         Fibroblast          9
1  CC(C)(C)c1ccc(CSc2cnn(C(C)(C)C)c(=O)c2Cl)cc1         Fibroblast          9

Then there is this compound:
-- ask Tell me the measured Population Mitochondria Different-Phenotype (%) of `OCCCNc1cc(-c2ccnc(Nc3cccc(Cl)c3)n2)ccn1` , please.
-- reply 9
